FYI, the data here is from patent US6420532B1.

- experimental-target: T1, human hippocampal Y2 receptor (clone CG-13) (human, UniProt P49146 1-381)
- T1 construct: 381 amino acids; also called CG-13 receptor; human Y2
- T1 sequence: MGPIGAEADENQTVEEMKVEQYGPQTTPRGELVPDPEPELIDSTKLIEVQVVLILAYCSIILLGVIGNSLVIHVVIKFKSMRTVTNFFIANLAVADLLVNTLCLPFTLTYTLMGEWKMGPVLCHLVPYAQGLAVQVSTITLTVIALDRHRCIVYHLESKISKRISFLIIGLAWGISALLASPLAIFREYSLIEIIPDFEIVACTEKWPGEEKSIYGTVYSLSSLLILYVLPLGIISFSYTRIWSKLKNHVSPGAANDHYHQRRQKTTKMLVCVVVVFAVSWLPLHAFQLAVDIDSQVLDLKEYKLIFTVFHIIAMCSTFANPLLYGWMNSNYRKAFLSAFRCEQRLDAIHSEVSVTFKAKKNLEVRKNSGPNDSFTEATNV
- test-description: 125I-PYY displacement, COS-7 membranes, Ki from IC50
pKi: −log10 of the molar value. Where no end group is shown, it is not given here.
Collected pKi values appear next to each entry.
recorded-metric: pKi

binder | recorded-metric | op | recorded-result
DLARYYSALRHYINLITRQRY-NH2 (peptide, UniProt P01304 25-45, looked up, range 16-36; also called NPY16-36, porcine) [porcine NPY16-36] | pKi | = | 8.44
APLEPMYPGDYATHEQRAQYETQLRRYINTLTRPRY-NH2 (peptide, UniProt P06303 30-65, looked up, mature; also called rat PP) [PP, rat] | pKi | < | 6.00
APSEPHHPGDQATQDQLAQYYSDLYQYITFVTRPRF-NH2 (also called frog PP) [PP, frog] | pKi | < | 6.00
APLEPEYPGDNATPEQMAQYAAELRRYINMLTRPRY-NH2 (peptide, UniProt P01302 30-65, looked up, mature; also called bovine PP) [PP, bovine] | pKi | = | 6.08
HYINLITRQRY-NH2 (peptide, UniProt P01304 35-45, looked up, range 26-36; also called NPY26-36, porcine) [porcine NPY26-36] | pKi | = | 6.42
YPSKPDNPGEDAPAEDMARYYSAL-NH2 (peptide, UniProt P01303 29-52, looked up, range 1-24) [NPY1-24 amide, human] | pKi | < | 6.00
SALRHYINLITRQRY-NH2 (peptide, UniProt P01304 31-45, looked up, range 22-36; also called NPY22-36, porcine) [porcine NPY22-36] | pKi | = | 7.74
